Target: ecto-domain protein of CD147 (Homo sapiens (assumed), isoform 2, UniProt P35613-2, biotin (Sulfo-NHS-LC-Biotin) in the BLI only)
Sequence (P35613 other isoform, or with tags, fused parts or gaps): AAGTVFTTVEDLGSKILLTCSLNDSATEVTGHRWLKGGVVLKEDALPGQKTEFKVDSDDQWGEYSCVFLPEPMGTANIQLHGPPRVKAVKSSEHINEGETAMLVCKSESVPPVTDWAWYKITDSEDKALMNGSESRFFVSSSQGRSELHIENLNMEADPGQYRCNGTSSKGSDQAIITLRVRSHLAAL

Binder | binding result
V-11 (VHH) VHH: QVQLQESGGGSVQAGGSLRLSCRASGYTFSRHCMGWFRQGPGKERELVASIYTFNGRTYYADSVKGRFTISQDNAQNSLYLQMDSLKPEDTAMYYCAAARIGWTSVSGSCPRMGDENKYWGQGTQVTVSS | binds
V-26 (VHH) VHH: QVQLQESGGGSVQAGGSLRLSCAAFGFIFSNYDMSWVRQAPGKGFEWVSSISRYGRTSNADAVKGRFTISRDNAKNTLYLQMNSLKTDDTAVYYCATGNFCSGGRCYINRGQGTQVTVSS | binds

The measured values listed here are drawn from paper PMC9114487.
